- Organism: Rattus norvegicus
- Method description: Open TG-GATES - Regimen: Daily Repeat
- Assay type: toxicity, organism-based, Sprague-Dawley
- Set-up: regimen Daily Repeat, gender Male, age 6 weeks
- Conditions used: in vivo, po, 0 mg/kg, […], tissue Blood, route gavage, dose level Control, time 14 day
The reader will find reported MCHC values listed item by item below.
Parameter: MCHC (%)

>>> df
                                   compound   val
0                          O=c1ccc2ccccc2o1  33.2
1                CCN(CC)C(=S)SSC(=S)N(CC)CC  33.9
2                   Nc1ccc(Cc2ccc(N)cc2)cc1  34.1
3                                       CCO  33.9
4      CN(C/C=C/C#CC(C)(C)C)Cc1cccc2ccccc12  34.1
5  CN(CCOc1ccc(CC2SC(=O)NC2=O)cc1)c1ccccn1.O=C(O)/C=C\C(=O)O (configuration not stated) [ROSIGLITAZONE MALEATE]    33
6  CCCCNC(=O)NS(=O)(=O)c1ccc(C)cc1 [TOLBUTAMIDE]  32.8
